Origin of values: patent US5731334A

experiment: Plasma stability and prodrug reversion (ethyl acetate extraction, HPLC); settings: human, plasma
half-life for assorted compounds
Respond with the figure and its unit, in that order.

Field: example entries. Status: answers known.
smilesData	quantityKind	result
CC(=O)O[C@@]12CO[C@@H]1C[C@H](O)[C@@]1(C)C(=O)[C@H](O)C3=C(C)[C@@H](OC(=O)[C@H](Oc4cccc[n+]4C)[C@@H](NC(=O)OC(C)(C)C)c4ccccc4)C[C@@](O)([C@@H](OC(=O)c4ccccc4)[C@H]21)C3(C)C	half-life	0.9 min
CC(=O)O[C@H]1C(=O)[C@@]2(C)[C@H]([C@H](OC(=O)c3ccccc3)[C@]3(O)C[C@H](OC(=O)[C@H](OC(=O)CS(=O)(=O)C(=O)O)[C@@H](NC(=O)c4ccccc4)c4ccccc4)C(C)=C1C3(C)C)[C@]1(OC(C)=O)CO[C@@H]1C[C@@H]2O	half-life	100 min
CC(=O)O[C@H]1C(=O)[C@]2(C)[C@@H](Oc3cccc[n+]3C)C[C@H]3OC[C@@]3(OC(C)=O)[C@H]2[C@H](OC(=O)c2ccccc2)[C@]2(O)C[C@H](OC(=O)[C@H](O)[C@@H](NC(=O)c3ccccc3)c3ccccc3)C(C)=C1C2(C)C	half-life	180 min

So, `CC(=O)O[C@H]1C(=O)[C@@]2(C)[C@H]([C@H](OC(=O)c3ccccc3)[C@]3(O)C[C@H](OC(=O)[C@H](Oc4cccc[n+]4C)[C@@H](NC(=O)c4ccccc4)c4ccccc4)C(C)=C1C3(C)C)[C@]1(OC(C)=O)CO[C@@H]1C[C@@H]2O` ? Its half-life was 2.4 min

---

assay: Toxicity and survival in vivo (tumor bearing nude mice); conditions: Table II, in vivo
quantityKind: Toxicity

molecule	result
CC(=O)O[C@H]1C(=O)[C@]2(C)[C@@H](Oc3cccc[n+]3C)C[C@H]3OC[C@@]3(OC(C)=O)[C@H]2[C@H](OC(=O)c2ccccc2)[C@]2(O)C[C@H](OC(=O)[C@H](O)[C@@H](NC(=O)c3ccccc3)c3ccccc3)C(C)=C1C2(C)C	low
CC(=O)O[C@H]1C(=O)[C@@]2(C)[C@H]([C@H](OC(=O)c3ccccc3)[C@]3(O)C[C@H](OC(=O)[C@H](O)[C@@H](NC(=O)c4ccccc4)c4ccccc4)C(C)=C1C3(C)C)[C@]1(OC(C)=O)CO[C@@H]1C[C@@H]2O [Compound 1, reference compound]	high
CC(=O)O[C@H]1C(=O)[C@@]2(C)[C@H]([C@H](OC(=O)c3ccccc3)[C@]3(O)C[C@H](OC(=O)[C@H](OC(=O)CS(=O)(=O)C(=O)O)[C@@H](NC(=O)c4ccccc4)c4ccccc4)C(C)=C1C3(C)C)[C@]1(OC(C)=O)CO[C@@H]1C[C@@H]2O	low
CC(=O)O[C@H]1C(=O)[C@@]2(C)[C@H]([C@H](OC(=O)c3ccccc3)[C@]3(O)C[C@H](OC(=O)[C@H](Oc4cccc[n+]4C)[C@@H](NC(=O)c4ccccc4)c4ccccc4)C(C)=C1C3(C)C)[C@]1(OC(C)=O)CO[C@@H]1C[C@@H]2O	low

Okay, now this molecule:
So, `CC(=O)O[C@H]1C(=O)[C@@]2(C)[C@H]([C@H](OC(=O)c3ccsc3)[C@]3(O)C[C@H](OC(=O)[C@H](Oc4cccc[n+]4C)[C@@H](NC(=O)c4ccccc4)c4ccccc4)C(C)=C1C3(C)C)[C@]1(OC(C)=O)CO[C@@H]1C[C@@H]2O` ? Its Toxicity was low

---

IC50 for assorted compounds
system: L-1210 leukemia cells; experiment: XTT dye binding cytotoxicity assay, L-1210; type: cell-based, mouse; conditions: L1210; L-1210, mouse leukemia; 72 h; read-out: IC50
Kindly provide the numeric value in nM only, without the unit symbol.

compound	targetEntity	quantityKind	number
CC(=O)O[C@H]1C(=O)[C@@]2(C)[C@H]([C@H](OC(=O)c3ccccc3)[C@]3(O)C[C@H](OC(=O)[C@H](Oc4cccc[n+]4C)[C@@H](NC(=O)c4ccccc4)c4ccccc4)C(C)=C1C3(C)C)[C@]1(OC(C)=O)CO[C@@H]1C[C@@H]2O	L-1210 leukemia cells	IC50	12.8
CC(=O)O[C@@]12CO[C@@H]1C[C@H](O)[C@@]1(C)C(=O)[C@H](O)C3=C(C)[C@@H](OC(=O)[C@H](O)[C@@H](NC(=O)OC(C)(C)C)c4ccccc4)C[C@@](O)([C@@H](OC(=O)c4ccccc4)[C@H]21)C3(C)C [Compound 5, reference compound]	L-1210 leukemia cells	IC50	0.59
CC(=O)O[C@H]1C(=O)[C@]2(C)[C@@H](Oc3cccc[n+]3C)C[C@H]3OC[C@@]3(OC(C)=O)[C@H]2[C@H](OC(=O)c2ccccc2)[C@]2(O)C[C@H](OC(=O)[C@H](O)[C@@H](NC(=O)c3ccccc3)c3ccccc3)C(C)=C1C2(C)C	L-1210 leukemia cells	IC50	178
CC(=O)O[C@H]1C(=O)[C@@]2(C)[C@H]([C@H](OC(=O)c3ccsc3)[C@]3(O)C[C@H](OC(=O)[C@H](Oc4cccc[n+]4C)[C@@H](NC(=O)c4ccccc4)c4ccccc4)C(C)=C1C3(C)C)[C@]1(OC(C)=O)CO[C@@H]1C[C@@H]2O	L-1210 leukemia cells	IC50	1.2

Value sought: IC50, system L-1210 leukemia cells, item `CC(=O)O[C@@]12CO[C@@H]1C[C@H](O)[C@@]1(C)C(=O)[C@H](O)C3=C(C)[C@@H](OC(=O)[C@H](Oc4cccc[n+]4C)[C@@H](NC(=O)OC(C)(C)C)c4ccccc4)C[C@@](O)([C@@H](OC(=O)c4ccccc4)[C@H]21)C3(C)C` . Result: 0.019

---

tested on: OVCAR-3 ovarian carcinoma cells; assay: XTT dye binding cytotoxicity assay, OVCAR-3; assay type: cell-based; settings: Homo sapiens; OVCAR-3, ovarian carcinoma; 72 h; read-out: IC50
pIC50 for assorted compounds
Just the number, please; pIC50 means minus log10 of the concentration in mol/L.

Field: example entries. Status: answers known.
compound	pIC50
CC(=O)O[C@@]12CO[C@@H]1C[C@H](O)[C@@]1(C)C(=O)[C@H](O)C3=C(C)[C@@H](OC(=O)[C@H](O)[C@@H](NC(=O)OC(C)(C)C)c4ccccc4)C[C@@](O)([C@@H](OC(=O)c4ccccc4)[C@H]21)C3(C)C [Compound 5, reference compound]	9.96
CC(=O)O[C@@]12CO[C@@H]1C[C@H](O)[C@@]1(C)C(=O)[C@H](O)C3=C(C)[C@@H](OC(=O)[C@H](Oc4cccc[n+]4C)[C@@H](NC(=O)OC(C)(C)C)c4ccccc4)C[C@@](O)([C@@H](OC(=O)c4ccccc4)[C@H]21)C3(C)C	7.09
CC(=O)O[C@H]1C(=O)[C@@]2(C)[C@H]([C@H](OC(=O)c3ccsc3)[C@]3(O)C[C@H](OC(=O)[C@H](Oc4cccc[n+]4C)[C@@H](NC(=O)c4ccccc4)c4ccccc4)C(C)=C1C3(C)C)[C@]1(OC(C)=O)CO[C@@H]1C[C@@H]2O	9.07
CC(=O)O[C@H]1C(=O)[C@]2(C)[C@@H](Oc3cccc[n+]3C)C[C@H]3OC[C@@]3(OC(C)=O)[C@H]2[C@H](OC(=O)c2ccccc2)[C@]2(O)C[C@H](OC(=O)[C@H](O)[C@@H](NC(=O)c3ccccc3)c3ccccc3)C(C)=C1C2(C)C	7.07

Okay, now this compound:
So, `CC(=O)O[C@H]1C(=O)[C@@]2(C)[C@H]([C@H](OC(=O)c3ccccc3)[C@]3(O)C[C@H](OC(=O)[C@H](Oc4cccc[n+]4C)[C@@H](NC(=O)c4ccccc4)c4ccccc4)C(C)=C1C3(C)C)[C@]1(OC(C)=O)CO[C@@H]1C[C@@H]2O` ? Its pIC50 was 8.13

---

system: RPMI-7666 blood lymphoblasts; experiment: XTT dye binding cytotoxicity assay, RPMI-7666; format: cell-based; settings: Homo sapiens; RPMI-7666, blood lymphoblasts (untransformed); 72 h; read-out: IC50
quantityKind: pIC50
Just the number, please; pIC50 means minus log10 of the concentration in mol/L.

Field: example entries. Status: answers known.
compound	pIC50
CC(=O)O[C@@]12CO[C@@H]1C[C@H](O)[C@@]1(C)C(=O)[C@H](O)C3=C(C)[C@@H](OC(=O)[C@H](O)[C@@H](NC(=O)OC(C)(C)C)c4ccccc4)C[C@@](O)([C@@H](OC(=O)c4ccccc4)[C@H]21)C3(C)C [Compound 5, reference compound]	7.15
CC(=O)O[C@H]1C(=O)[C@]2(C)[C@@H](Oc3cccc[n+]3C)C[C@H]3OC[C@@]3(OC(C)=O)[C@H]2[C@H](OC(=O)c2ccccc2)[C@]2(O)C[C@H](OC(=O)[C@H](O)[C@@H](NC(=O)c3ccccc3)c3ccccc3)C(C)=C1C2(C)C [Compound 3]	6.91
CC(=O)O[C@H]1C(=O)[C@@]2(C)[C@H]([C@H](OC(=O)c3ccccc3)[C@]3(O)C[C@H](OC(=O)[C@H](Oc4cccc[n+]4C)[C@@H](NC(=O)c4ccccc4)c4ccccc4)C(C)=C1C3(C)C)[C@]1(OC(C)=O)CO[C@@H]1C[C@@H]2O [Compound 2]	6.88
CC(=O)O[C@H]1C(=O)[C@@]2(C)[C@H]([C@H](OC(=O)c3ccsc3)[C@]3(O)C[C@H](OC(=O)[C@H](Oc4cccc[n+]4C)[C@@H](NC(=O)c4ccccc4)c4ccccc4)C(C)=C1C3(C)C)[C@]1(OC(C)=O)CO[C@@H]1C[C@@H]2O [Compound 4]	6.39

So, CC(=O)O[C@@]12CO[C@@H]1C[C@H](O)[C@@]1(C)C(=O)[C@H](O)C3=C(C)[C@@H](OC(=O)[C@H](Oc4cccc[n+]4C)[C@@H](NC(=O)OC(C)(C)C)c4ccccc4)C[C@@](O)([C@@H](OC(=O)c4ccccc4)[C@H]21)C3(C)C [Compound 6] ? Its pIC50 was 6.22
